target-of-assay: human endothelin receptor ETB (Homo sapiens, UniProt P24530)
Construct: expressed in transfected cells; host or cells: CHO cells (membrane fraction)
Sequence (P24530 27-442): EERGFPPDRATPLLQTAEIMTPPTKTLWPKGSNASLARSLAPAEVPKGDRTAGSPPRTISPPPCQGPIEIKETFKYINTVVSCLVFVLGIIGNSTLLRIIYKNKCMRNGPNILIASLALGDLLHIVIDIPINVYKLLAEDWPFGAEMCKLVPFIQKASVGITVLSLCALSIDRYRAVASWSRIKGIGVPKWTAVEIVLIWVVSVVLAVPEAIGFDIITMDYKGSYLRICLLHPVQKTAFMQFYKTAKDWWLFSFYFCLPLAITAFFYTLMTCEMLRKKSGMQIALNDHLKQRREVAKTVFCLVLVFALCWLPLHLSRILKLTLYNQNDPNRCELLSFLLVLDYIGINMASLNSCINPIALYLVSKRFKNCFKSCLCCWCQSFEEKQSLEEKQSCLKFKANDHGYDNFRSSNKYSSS
assay-notes: Radioiodinated endothelin-1 binding to membrane fraction of CHO cells expressing human endothelin receptor ETB
applied-conditions: radioactive-iodine-labeled endothelin-1, 25° C., one hour
Protocol: The membrane fraction of CHO cells on which human endothelin receptor (ETA or ETB) was expressed was diluted to 0.15 mg/ml with an assaying buffer and dispensed to assaying tubes at 100 μl per tube. […] The radioactive iodine in this precipitate was counted, using a gamma ray counter, to determine the amount of radioactive-iodine-labeled endothelin-1 bound to the endothelin receptors. The results of the quantitative determination were shown in the respective IC50 (nm) values in the following Table 2.
*1 amine or outer side, *2 acyl side, *3 side chain or, on linkers, in order; H or OH if unused. Where a SMILES comes first, the peptide text is derived from it. [ ]: non-standard residue; d: D form. The star is where a group is joined. Piperazinyl(4-Ph) = c1ccc(N2CCN(*)CC2)cc1; X3 = COc1ccc(C)cc1N1CCN(*)CC1; X2 = COc1cccc(N2CCN(*)CC2)c1; dNle = CCCC[C@@H](N)C(=O)O; X4 = Fc1ccccc1N1CCN(*)CC1; Nle = CCCC[C@H](N)C(=O)O; CO = O=C([*:1])[*:2]; X1 = C1CCCN(*)CC1; Moc = COC(=O)*; For = O=C*
So basically: is IC50 under 30 nM? Then fulfilled. Not under? Then not fulfilled.

# compound, answer-label
records = [
    ("CCCC[C@@H](NC(=O)[C@@H](Cc1cn(C(=O)OC)c2ccccc12)NC(=O)[C@H](CC(C)C)NC(=O)N1CCCCCC1)C(=O)N[C@H](CC(=O)N1CCN(c2cccc(OC)c2)CC1)C(=O)O [W. Ex. 6] ({X1-CO}-L[dW](Moc)[dNle][dD](X2)-OH)", "fulfilled"),
    ("CCCC[C@@H](NC(=O)[C@@H](Cc1cn(C(=O)OC)c2ccccc12)NC(=O)[C@H](CC(C)C)NC(=O)N1CCCCCC1)C(=O)N[C@H](CC(=O)N1CCN(c2ccccc2F)CC1)C(=O)O [W. Ex. 8] ({X1-CO}-L[dW](Moc)[dNle][dD](X4)-OH)", "fulfilled"),
    ("CCCC[C@H](NC(=O)N1CCCCCC1)C(=O)N[C@H](Cc1cn(C(=O)OC)c2ccccc12)C(=O)N[C@H](CCCC)C(=O)N[C@H](CC(=O)N1CCN(c2ccccc2)CC1)C(=O)O [W. Ex. 10] ({X1-CO}-[Nle][dW](Moc)[dNle][dD](Piperazinyl(4-Ph))-OH)", "not fulfilled"),
    ("CCCC[C@@H](NC(=O)[C@@H](Cc1cn(C=O)c2ccccc12)NC(=O)[C@H](CC(C)C)NC(=O)N1CCCCCC1)C(=O)N[C@H](CC(=O)N1CCN(c2ccccc2)CC1)C(=O)O [W. Ex. 1] ({X1-CO}-L[dW](For)[dNle][dD](Piperazinyl(4-Ph))-OH)", "not fulfilled"),
    ("CCCC[C@@H](NC(=O)[C@@H](Cc1cn(C(=O)OC)c2ccccc12)NC(=O)[C@H](CC(C)C)NC(=O)N1CCCCCC1)C(=O)N[C@H](CC(=O)N1CCN(c2ccccc2)CC1)C(=O)O [W. Ex. 2] ({X1-CO}-L[dW](Moc)[dNle][dD](Piperazinyl(4-Ph))-OH)", "fulfilled"),
    ("CCCC[C@@H](NC(=O)[C@@H](Cc1cn(C(=O)OC)c2ccccc12)NC(=O)[C@H](CC(C)C)NC(=O)N1CCCCCC1)C(=O)N[C@@H](CC(=O)N1CCN(c2ccccc2)CC1)C(=O)O [W. Ex. 3] ({X1-CO}-L[dW](Moc)[dNle]D(Piperazinyl(4-Ph))-OH)", "not fulfilled"),
    ("CCCC[C@@H](NC(=O)[C@@H](Cc1cn(C(=O)OC)c2ccccc12)NC(=O)[C@H](CC(C)C)NC(=O)N1CCCCCC1)C(=O)N[C@H](CC(=O)N1CCN(c2cc(C)ccc2OC)CC1)C(=O)O [W. Ex. 7] ({X1-CO}-L[dW](Moc)[dNle][dD](X3)-OH)", "not fulfilled"),
    ("CCCC[C@@H](NC(=O)[C@@H](Cc1cn(C(=O)OC)c2ccccc12)NC(=O)[C@@H](NC(=O)N1CCCCCC1)[C@@H](C)CC)C(=O)N[C@H](CC(=O)N1CCN(c2ccccc2)CC1)C(=O)O [W. Ex. 9] ({X1-CO}-I[dW](Moc)[dNle][dD](Piperazinyl(4-Ph))-OH)", "fulfilled"),
]

These entries and their values trace back to patent US5925731A.
